# study.target: Abl(h) (Homo sapiens, UniProt P00519)
# Construct: purchased Caliper Life Sciences
# Sequence (P00519 whole entry): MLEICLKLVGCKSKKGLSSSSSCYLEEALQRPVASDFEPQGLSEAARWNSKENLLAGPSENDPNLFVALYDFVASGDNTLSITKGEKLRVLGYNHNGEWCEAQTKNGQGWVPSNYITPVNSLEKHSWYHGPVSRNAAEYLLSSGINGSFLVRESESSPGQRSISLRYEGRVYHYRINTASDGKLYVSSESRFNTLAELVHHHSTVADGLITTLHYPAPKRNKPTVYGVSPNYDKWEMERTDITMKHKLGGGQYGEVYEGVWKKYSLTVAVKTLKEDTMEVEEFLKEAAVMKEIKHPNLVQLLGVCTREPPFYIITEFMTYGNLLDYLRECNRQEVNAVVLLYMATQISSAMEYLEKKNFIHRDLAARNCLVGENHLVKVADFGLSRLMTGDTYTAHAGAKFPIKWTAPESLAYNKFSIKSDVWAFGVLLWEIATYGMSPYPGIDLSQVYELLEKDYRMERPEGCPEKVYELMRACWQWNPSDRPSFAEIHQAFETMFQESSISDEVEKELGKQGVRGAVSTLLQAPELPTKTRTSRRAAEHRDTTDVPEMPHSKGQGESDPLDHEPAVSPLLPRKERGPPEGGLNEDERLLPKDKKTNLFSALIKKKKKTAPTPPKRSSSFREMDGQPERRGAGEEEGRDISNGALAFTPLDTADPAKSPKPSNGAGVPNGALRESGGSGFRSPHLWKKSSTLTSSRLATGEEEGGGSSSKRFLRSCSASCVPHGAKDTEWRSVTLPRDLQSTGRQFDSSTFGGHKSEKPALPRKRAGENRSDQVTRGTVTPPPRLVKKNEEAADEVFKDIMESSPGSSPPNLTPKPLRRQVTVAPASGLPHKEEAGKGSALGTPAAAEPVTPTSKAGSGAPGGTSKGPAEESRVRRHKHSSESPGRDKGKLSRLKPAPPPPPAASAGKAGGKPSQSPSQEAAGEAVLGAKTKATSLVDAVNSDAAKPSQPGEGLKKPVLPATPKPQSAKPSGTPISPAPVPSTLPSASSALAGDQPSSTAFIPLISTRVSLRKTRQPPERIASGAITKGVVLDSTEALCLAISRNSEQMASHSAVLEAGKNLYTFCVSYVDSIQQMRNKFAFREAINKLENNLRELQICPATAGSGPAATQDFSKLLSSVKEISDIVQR
# procedure.summary: Other kinases, single-concentration inhibition (Table 3)
# Format: biochemical
# condition.description: 1 μM
parameter: inhibition at 1 µM (%)
Write the answer as a number in %, unit excluded.

Q: inhibition at 1 µM for CC[C@@H]1C[C@@H]2/C=C\COc3cccc(c3)Nc3ncc(F)c(n3)N[C@H]2[C@H]1C(N)=O (single isomer, unassigned) ?
Result: 99

Q: inhibition at 1 µM for "CN1CCN(c2ccc3cc2OCCS[C@@H]2C[C@@H]4C[C@H]2[C@@H](Nc2nc(ncc2F)N3)[C@H]4C(N)=O)CC1" ?
Result: -4

Q: inhibition at 1 µM for CC[C@@H]1C[C@@H]2CCCOc3cccc(c3)Nc3ncc(F)c(n3)N[C@H]2[C@H]1C(N)=O (single isomer, unassigned) ?
Result: 105

###

# study.target: ROCK-II(h) (Homo sapiens, UniProt O75116)
# Construct: purchased Caliper Life Sciences
# Sequence (O75116 whole entry): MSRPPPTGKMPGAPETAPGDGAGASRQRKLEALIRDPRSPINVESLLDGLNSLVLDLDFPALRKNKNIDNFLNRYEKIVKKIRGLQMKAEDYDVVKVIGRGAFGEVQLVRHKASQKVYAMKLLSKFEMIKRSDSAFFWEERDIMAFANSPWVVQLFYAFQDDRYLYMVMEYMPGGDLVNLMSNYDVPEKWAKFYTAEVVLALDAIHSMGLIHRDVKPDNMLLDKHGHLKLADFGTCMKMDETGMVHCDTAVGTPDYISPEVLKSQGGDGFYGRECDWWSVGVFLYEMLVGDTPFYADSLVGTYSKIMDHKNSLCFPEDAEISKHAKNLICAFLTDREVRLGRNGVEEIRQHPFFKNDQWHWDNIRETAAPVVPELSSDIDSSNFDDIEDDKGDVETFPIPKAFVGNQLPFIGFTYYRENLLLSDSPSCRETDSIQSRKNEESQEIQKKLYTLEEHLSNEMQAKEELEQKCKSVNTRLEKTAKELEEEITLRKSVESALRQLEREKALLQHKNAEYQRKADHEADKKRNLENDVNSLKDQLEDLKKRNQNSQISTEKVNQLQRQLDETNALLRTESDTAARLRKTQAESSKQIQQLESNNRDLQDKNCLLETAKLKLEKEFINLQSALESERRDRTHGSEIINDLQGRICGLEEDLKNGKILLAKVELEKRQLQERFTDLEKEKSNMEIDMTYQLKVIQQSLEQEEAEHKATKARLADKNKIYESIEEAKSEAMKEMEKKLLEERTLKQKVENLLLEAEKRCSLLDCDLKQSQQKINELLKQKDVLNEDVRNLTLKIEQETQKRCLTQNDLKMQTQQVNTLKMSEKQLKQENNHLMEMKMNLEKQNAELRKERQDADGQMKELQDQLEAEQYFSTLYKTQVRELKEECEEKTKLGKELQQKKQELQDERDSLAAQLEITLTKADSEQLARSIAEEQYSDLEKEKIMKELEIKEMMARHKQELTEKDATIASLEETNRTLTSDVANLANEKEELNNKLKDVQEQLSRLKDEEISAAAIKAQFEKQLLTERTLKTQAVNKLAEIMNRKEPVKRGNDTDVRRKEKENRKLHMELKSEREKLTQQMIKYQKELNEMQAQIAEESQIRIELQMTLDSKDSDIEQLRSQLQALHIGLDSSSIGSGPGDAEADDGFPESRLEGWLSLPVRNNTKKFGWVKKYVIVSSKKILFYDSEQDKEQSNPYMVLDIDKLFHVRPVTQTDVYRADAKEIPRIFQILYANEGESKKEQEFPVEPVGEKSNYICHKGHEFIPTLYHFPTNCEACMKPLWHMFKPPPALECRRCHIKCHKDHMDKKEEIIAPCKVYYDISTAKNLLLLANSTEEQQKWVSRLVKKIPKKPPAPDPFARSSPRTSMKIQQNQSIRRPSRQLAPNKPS
# procedure.summary: Other kinases, single-concentration inhibition (Table 3)
# Type: biochemical
# condition.description: 1 μM
# Experimental: The Aurora and other kinase assays described here were performed on two Caliper Life Sciences systems, the LC3000 and the Desktop Profiler. These provide data on enzyme activity via measurement of the relative amounts of phosphorylated or unphosphorylated fluorescently labelled substrate peptide at the end of an enzymatic reaction. […] Plates were read in a manner identical to that of the LC3000, and the ratio between substrate and product peaks provided the activity of the enzyme in that well. […]
parameter: % inhibition ROCK-II(h) (%)
Write the answer as a number in %, unit excluded.

Q: % inhibition ROCK-II(h) for NC(=O)[C@H]1[C@H]2C[C@H]3[C@H]1Nc1nc(ncc1F)Nc1cccc(c1)C(=O)CS[C@@H]3C2 [Example 11] ?
Result: 102

Q: % inhibition ROCK-II(h) for NC(=O)[C@H]1[C@H]2C[C@H]3[C@H]1Nc1nc(ncc1F)Nc1cccc(c1)CSS[C@@H]3C2 [Example 10] ?
Result: 90

Q: % inhibition ROCK-II(h) for N#Cc1ccc2cc1NC(=O)CS[C@@H]1C[C@@H]3C[C@H]1[C@@H](Nc1nc(ncc1F)N2)[C@H]3C(N)=O [Example 26] ?
Result: 94

Q: % inhibition ROCK-II(h) for CC[C@@H]1C[C@@H]2CCCOc3cccc(c3)Nc3ncc(F)c(n3)N[C@H]2[C@H]1C(N)=O (single isomer, unassigned) [Example 5] ?
Result: 105

###

Kindly supply the reported % inhibition Ret(h) values for the records listed here.
# study.target: Ret(h) (Homo sapiens, UniProt P07949)
# Construct: purchased Caliper Life Sciences
# Sequence (P07949 29-1114): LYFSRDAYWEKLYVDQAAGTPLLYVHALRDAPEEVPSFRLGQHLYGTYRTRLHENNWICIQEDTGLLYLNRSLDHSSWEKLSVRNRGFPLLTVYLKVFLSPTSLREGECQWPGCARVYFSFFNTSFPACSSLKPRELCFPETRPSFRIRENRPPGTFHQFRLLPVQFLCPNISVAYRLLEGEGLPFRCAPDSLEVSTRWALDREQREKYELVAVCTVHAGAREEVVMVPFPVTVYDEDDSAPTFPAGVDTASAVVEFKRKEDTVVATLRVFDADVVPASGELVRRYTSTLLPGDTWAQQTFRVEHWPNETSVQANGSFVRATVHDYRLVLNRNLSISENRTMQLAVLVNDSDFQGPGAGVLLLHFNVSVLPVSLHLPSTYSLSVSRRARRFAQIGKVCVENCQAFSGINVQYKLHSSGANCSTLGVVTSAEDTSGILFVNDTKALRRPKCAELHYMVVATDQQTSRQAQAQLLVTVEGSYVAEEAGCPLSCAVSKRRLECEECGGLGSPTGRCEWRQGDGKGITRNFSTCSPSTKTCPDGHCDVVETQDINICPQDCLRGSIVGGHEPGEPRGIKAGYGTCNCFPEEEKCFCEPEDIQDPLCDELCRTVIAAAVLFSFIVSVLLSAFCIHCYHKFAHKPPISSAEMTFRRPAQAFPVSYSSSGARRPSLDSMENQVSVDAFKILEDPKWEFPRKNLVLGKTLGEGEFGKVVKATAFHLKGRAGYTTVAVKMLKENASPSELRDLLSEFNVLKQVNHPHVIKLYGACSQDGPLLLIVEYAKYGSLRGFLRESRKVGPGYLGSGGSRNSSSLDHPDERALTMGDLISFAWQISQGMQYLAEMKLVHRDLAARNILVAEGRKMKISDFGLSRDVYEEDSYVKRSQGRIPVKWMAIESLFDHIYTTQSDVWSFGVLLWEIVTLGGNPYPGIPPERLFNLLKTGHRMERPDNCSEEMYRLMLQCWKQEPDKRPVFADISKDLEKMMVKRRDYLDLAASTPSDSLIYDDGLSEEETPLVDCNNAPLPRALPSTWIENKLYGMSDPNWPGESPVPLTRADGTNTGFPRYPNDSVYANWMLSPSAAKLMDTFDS
# procedure.summary: Other kinases, single-concentration inhibition (Table 3)
# Type: biochemical
# condition.description: 1 μM
Write the answer as a number in %, unit excluded.

Q: % inhibition Ret(h) for "CN1CCN(c2ccc3cc2NC(=O)CS[C@@H]2C[C@@H]4C[C@H]2[C@@H](Nc2nc(ncc2F)N3)[C@H]4C(N)=O)CC1" ?
Result: 1

Q: % inhibition Ret(h) for C=C[C@@H]1C[C@@H]2/C=C/COc3cccc(c3)Nc3ncc(F)c(n3)N[C@H]2[C@H]1C(N)=O (single isomer, unassigned) ?
Result: 78

Q: % inhibition Ret(h) for "NC(=O)[C@H]1[C@H]2C[C@H]3[C@H]1Nc1nc(ncc1F)Nc1cccc(c1)CSS[C@@H]3C2" ?
Result: 7

Q: % inhibition Ret(h) for "N#Cc1ccc2cc1NC(=O)CS[C@@H]1C[C@@H]3C[C@H]1[C@@H](Nc1nc(ncc1F)N2)[C@H]3C(N)=O" ?
Result: 50

Origin of values: patent US8815872B2
